- Measurement target: cynomolgus Siglec-2/CD22 (Macaca fascicularis)
- Sequence (A0A2K5WCZ6 entry or part of it): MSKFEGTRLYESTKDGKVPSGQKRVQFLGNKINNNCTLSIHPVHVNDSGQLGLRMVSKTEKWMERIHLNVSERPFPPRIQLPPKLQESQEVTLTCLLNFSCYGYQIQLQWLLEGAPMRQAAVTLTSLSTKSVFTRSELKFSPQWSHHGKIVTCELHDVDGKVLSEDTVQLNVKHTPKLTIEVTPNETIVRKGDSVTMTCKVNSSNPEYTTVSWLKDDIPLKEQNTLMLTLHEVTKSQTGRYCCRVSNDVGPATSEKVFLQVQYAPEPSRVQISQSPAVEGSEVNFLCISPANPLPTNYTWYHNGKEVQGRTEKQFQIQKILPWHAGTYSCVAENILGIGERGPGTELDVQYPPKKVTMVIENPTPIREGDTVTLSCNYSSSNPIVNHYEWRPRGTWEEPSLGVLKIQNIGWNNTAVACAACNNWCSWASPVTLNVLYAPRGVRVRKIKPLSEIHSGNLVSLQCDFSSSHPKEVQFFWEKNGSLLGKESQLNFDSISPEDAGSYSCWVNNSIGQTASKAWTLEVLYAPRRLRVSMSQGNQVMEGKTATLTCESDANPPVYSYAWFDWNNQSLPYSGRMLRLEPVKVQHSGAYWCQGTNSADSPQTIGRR
- Assay procedure: biochemical
- Condition: SPR, steady-state analysis; read-out: Affinity cyno CD22
pKd: −log10 of the molar value.
Task for the reader: assign each of the following compounds its reported pKd.

Provide pKd for all items below, preserving their order.
1. C#CCOCCOCCO[C@]1(C(=O)O)C[C@H](O)[C@@H](NC(=O)CO)[C@H]([C@H](O)[C@H](O)CNC(=O)Cc2ccc(Cl)c(O)c2)O1 [Compound 134]
2. C#CCOc1ccc(CO[C@]2(C(=O)O)C[C@H](O)[C@@H](NC(=O)CO)[C@H]([C@H](O)[C@H](O)CNC(=O)Cc3ccc(-c4ccc(O)cc4)cc3Cl)O2)cc1 [Compound 52]
3. C#CCOCCCCCCO[C@]1(C(=O)O)C[C@H](O)[C@@H](NC(=O)CO)[C@H]([C@H](O)[C@H](O)CNC(=O)Cc2ccc(OC(F)(F)F)cc2)O1 [Compound 156]
4. C#CCOCCOCCO[C@]1(C(=O)O)C[C@H](O)[C@@H](NC(=O)CO)[C@H]([C@H](O)[C@H](O)CNC(=O)Cc2ccc(-c3ccccc3)cc2O)O1 [Compound 67]
5. C#CCOCCCCCCO[C@]1(C(=O)O)C[C@H](O)[C@@H](NC(=O)CO)[C@H]([C@H](O)[C@H](O)CNC(=O)Cc2ccc(C(C)C)cc2)O1 [Cpd. 159]
6. C#CCNc1c(NCCCCCCO[C@]2(C(=O)O)C[C@H](O)[C@@H](NC(=O)CO)[C@H]([C@H](O)[C@H](O)CNC(=O)Cc3ccc(-c4ccccc4)cc3)O2)c(=O)c1=O [Compound 221]

stdout:
["> 6.00", "5.00 to 6.00", "> 6.00", "5.00 to 6.00", "> 6.00", "> 6.00"]
